- Tested on: PTK2
- Set-up: species or system human, MV4-11 + K-562 + COLO205 + SK-N-BE2 + OVCAR-8
- Assay conditions: read-out: apparent Kd; compound concentrations:100 nM and 1000 nM (sheet 'Samples'); n = 1
Rule: potency estimated from few doses below 400 nM gives met. Equal to or above 400 nM gives not met.

molecule="Cl.Cl.NCC(C(=O)Nc1cc(Br)c(-c2ccnc3[nH]ccc23)s1)c1ccccc1.NCC(C(=O)Nc1cc(Br)c(-c2ccnc3[nH]ccc23)s1)c1ccccc1 (stereo not shown) [GSK1269851A]" group="not met"
molecule="COc1cc(N2CCN(C(C)C)CC2)ccc1Nc1nc(Nc2ccc(F)cc2C(=O)NC[C@@H](O)CO)c2cc[nH]c2n1 [GSK1392956A]" group=met
molecule="CNC(=O)c1ccccc1Nc1nc(Nc2ccc(N3CCOCC3)cc2)ncc1Cl.Cl [GSK1576028A]" group=met
molecule="NCCNS(=O)(=O)c1ccc(-c2ccnc3[nH]ccc23)cc1 [GSK977617A]" group=met
molecule="Cc1ccc2c(-c3ccncc3)c(-c3ccc(F)cc3)nn2c1.Cl [GW461484A]" group="not met"
molecule=Cl.Cn1c(=O)c(Cc2ccc(F)cc2F)cc2cnc(NC3CCOCC3)nc21 group="not met"
molecule=O=C1NC(=O)C(N2CCc3ccccc32)=C1c1ccccc1Cl group=met
